assay.target: T1, mfGCGR-hFc (cynomolgus monkey (Macaca fascicularis))
T1 construct: also called mfGCGR-N-terminal hFc
T1 sequence (chain, as listed by the source limits assumed): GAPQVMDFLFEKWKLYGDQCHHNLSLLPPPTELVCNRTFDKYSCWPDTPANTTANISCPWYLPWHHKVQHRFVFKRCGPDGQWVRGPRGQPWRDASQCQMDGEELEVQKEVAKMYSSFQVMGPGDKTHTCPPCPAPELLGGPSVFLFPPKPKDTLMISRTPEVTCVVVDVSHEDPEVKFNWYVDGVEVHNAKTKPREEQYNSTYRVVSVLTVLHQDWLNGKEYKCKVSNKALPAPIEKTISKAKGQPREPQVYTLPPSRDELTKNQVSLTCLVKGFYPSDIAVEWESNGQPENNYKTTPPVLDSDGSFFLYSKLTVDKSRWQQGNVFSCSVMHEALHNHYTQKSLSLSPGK
procedure.details: SPR Biacore T100, 25C, mAb captured, antigen flowed
parameter: koff (s⁻¹)
Numbers only, in s⁻¹.

H4H1327P (antibody, V domains shown, also called anti-GCGR (hIgG4) antibody designated H4H1327P) VH: EVQLVESGGGLVQPGGSLRLSCAASGFTFSNYLMNWVRQAPGKGLEWLANIQEDGIEKYYVDSVKGRFTISRDNAKNSLYLQMNSLRAEDTAVYYCAREPSHYDILTGYDYYYGMDVWGQGTTVTVS VL: DIQMTQSPSSLSASVGDRVTITCRASQGIRNDLGWYQQKPGKAPKRLIYAASSLQSGVPSRFSGSGSGTEFILTVSSLQPEDFATYYCLQYNSNPFTFGPGTKVDIK | 1.44e-05

Which value of koff has been reported for H4H1328P (antibody, V domains shown, Fully human anti-GCGR antibody; the controls are called isotype-matched hIgG4) VH: EVQLVESGGALVQPGGSLRLSCTASGFTFSNYDMHWVRQTTGKGLEWISAIDTAGDTYYPGSVKGRFTVSRENAKNSFYLQMNSLRAGDTAVYYCAREGKYYDILTGDYHYYGMDVWGQGTTVTVS VL: DIQMTQSPSSLSASVGDRVTITCRASQGIRNDLGWYQQKPGKAPKRLIYATSSLQSGVPSRFSGSGSGTEFTLTISSLQPEDFATYYCLQHNSYPLTFGGGTKLEIK in the records?
8.46e-05
